# Tested on: CYP2B6
# condition-context: upcyte Donor 10-03; relative to positive control phenobarbital, equation 2
experimental-endpoint: CYP2B6 % PB

> print(dat)
                               given.smiles  endpoint.value
1  C=C[C@H]1C[N@@]2CC[C@H]1C[C@@H]2[C@@H](O)c1ccnc2ccc(OC)cc12    No induction
2  C[C@@H]1C[C@H]2[C@@H]3CCC4=CC(=O)C=C[C@]4(C)[C@@]3(F)[C@@H](O)C[C@]2(C)[C@@]1(O)C(=O)CO    No induction
3   CCOC(=O)c1ncn2c1CN(C)C(=O)c1cc(F)ccc1-2    No induction

Cited source for all entries: paper PMC4618636
